Test: Clearance in rat at 0.1 mg/kg, iv administered as cassette dose measured upto 24 hrs by LC-MS/MS method
Type: ADME, organism-based
Details: in vivo
propertyName: clearance (mL/min/kg)
Dear colleague, please return just the value in mL/min/kg, with no unit written.

QUERY: // query clearance value for entry C[C@@H]1CN(c2cc(-c3ncc4ccc(-c5cnn(C)c5)cn34)ccn2)C[C@H](C)O1
RESULT: 98

====

Assay: Clearance in rhesus monkey at 2 mg/kg, iv measured upto 24 hrs by LC-MS/MS method
Format: ADME, organism-based, Macaca mulatta
Conditions: in vivo
propertyName: clearance (mL/min/kg)
Give just the numeric value; mL/min/kg need not be written.

QUERY: May I ask what clearance has been recorded for C[C@@H]1CN(c2cc(-c3n[nH]c4ccc(OC5(C)CC5)cc34)ncn2)C[C@H](C)O1 ?
RESULT: 16

====

Experiment: Unbound brain-to-plasma concentration ratio in rat
Type: ADME, cell-free
Conditions: read-out: K(p,uu,brain)
propertyName: Kp uu
I only need the number, thanks.

QUERY: Please report the recorded Kp uu for C[C@@H]1CN(c2cc(-c3n[nH]c4ccc(OC5(C)CC5)cc34)ncn2)C[C@H](C)O1 .
RESULT: 0.5

====

Test: Mean residence time in rat at 10 mg/kg, po or 2 mg/kg, iv measured upto 24 hrs by LC-MS/MS method
Assay type: ADME, organism-based
Settings: in vivo
propertyName: MRT

QUERY: Need MRT, item C[C@@H]1CN(c2cc(-c3n[nH]c4ccc(OC5(C)CC5)cc34)ncn2)C[C@H](C)O1
RESULT: 2 h

====

Experiment: Mean residence time in dog at 3 mg/kg, po or 0.5 mg/kg, iv measured upto 24 hrs by LC-MS/MS method
Type: ADME, organism-based, Canis lupus familiaris
Conditions: in vivo
propertyName: MRT (h)
Write it as a number; the unit h goes unstated.

QUERY: Any idea what MRT was measured for C[C@@H]1CN(c2cc(-c3n[nH]c4ccc(OC5(C)CC5)cc34)ncn2)C[C@H](C)O1 [MLi-2] ?
RESULT: 7

====

Assay: Oral bioavailability in dog at 3 mg/kg measured upto 24 hrs by LC-MS/MS method
Type: ADME, organism-based, Canis lupus familiaris
Conditions: in vivo
propertyName: bioavailability (%)
Supply the numeric figure in %, leaving out any unit text.

QUERY: Need bioavailability of C[C@@H]1CN(c2cc(-c3n[nH]c4ccc(OC5(C)CC5)cc34)ncn2)C[C@H](C)O1 [MLi-2] , thanks.
RESULT: 100

====

Test: Oral bioavailability in rat at 10 mg/kg measured upto 24 hrs by LC-MS/MS method
Format: ADME, organism-based
Conditions: in vivo
propertyName: bioavailability (%)
A number alone suffices; assume %.

QUERY: Look at this compound and give its reported bioavailability. C[C@@H]1CN(c2cc(-c3n[nH]c4ccc(OC5(C)CC5)cc34)ncn2)C[C@H](C)O1
RESULT: 38
